test: chemical genetic growth profiling, strain panel (AID 1159580);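 further: tested at 20 µM; growth read once vehicle control cultures reached saturation at 30 °C; 1 = growth at the plate median or of vehicle wells; lower values mean less growth of the strain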; conditions: S. cerevisiae deletion strains, growth OD, locus YBR279W, strain paf1, stronger effect = lower value
The whole screen tested about 5,500 compounds, of which about 2,000 (36%) were called active. Roughly 18% stayed inconclusive and do not appear here. Some of the results follow.
observation.type: normalized growth
// no unit string in output, number only

These solved cases illustrate the format of a correct answer.
>>> reported_value("CN1CCCCC1c1ccc(-c2cccnc2)nc1 (stereo not drawn)")
0.984
>>> reported_value("CC(=O)O[C@@H]1C2CC[C@@H]3C1(C[C@@H](O)[C@@]1(O)[C@@H](C[C@H](O)C1(C)C)[C@]3(C)O)C[C@@]2(C)O (stereo partly drawn)")
1

For reference, reported normalized growth for CCCN(CCC)c1c([N+](=O)[O-])cc(C(F)(F)F)cc1[N+](=O)[O-] stands at 1.01
